TARGET OR TEST SYSTEM: LHRH receptor (LHRH binding sites) on EFO-27 human ovarian cancer cells (human)
ASSAY: competition with [125I-Tyr8]BRU-2477 for binding to EFO-27 cells
pEC50: −log10 of the molar value. Non-standard residues stand in square brackets, D forms with d. Primed or numbered codes have the meaning given here. DO3A10CM″ = chelating group at the N-terminus (X in the sequence tables); Bpa = N[C@@H](Cc1ccc(C(=O)c2ccccc2)cc1)C(=O)O; His(1-Me) = 1-methylhistidine; DO3A10CM = not defined here; Bpa4 = non-natural residue; Amfe4 = not defined here; Bzgly = not defined here; Hpgly = not defined here; azaGly = NNC(=O)O; Sar = CNCC(=O)O
Outcome: 1.0 for pEC50 of at least 6; 0.0 for anything lower.

Before answering, review these 2 worked examples.
DO3A10CM-G[Hpgly]HWSH[dR]W[Bpa]P[azaGly]-NH2 (reading uncertain; also: printed as DO3A10CM-Gly-Hpgly-His-Trp-Ser-His-Darg-Trp-Bpa4-Pro-azaGly-NH2) [BRU-2797] : 1.0
{DO3A10CM″}-[Sar][His(1-Me)]WSH[dR]W[Bpa]P[azaGly]-NH2 [BRU-2741] : 0.0

Q) pEC50 >= 6 for XHWSHXWXPX (as printed: DO3A10CM-Dphe-His-Trp-Ser-His-Darg-Trp-Bpa4-Pro-azaGly-NH2) [BRU-2894] ?
A) 0.0

Q) Record: DO3A10CM-G[Bzgly]HWSH[dR]W[Bpa]P[azaGly]-NH2 (reading uncertain; also: printed as DO3A10CM-Gly-Bzgly-His-Trp-Ser-His-Darg-Trp-Bpa4-Pro-azaGly-NH2) [BRU-2792]
A) 0.0

Q) Similarly, DO3A10CM-[Sar][Amfe4]WSH[dR]W[Bpa4]P[azaGly]-NH2 (reading uncertain; also: printed as DO3A10CM-Sar-Amfe4-Trp-Ser-His-Darg-Trp-Bpa4-Pro-azaGly-NH2) [BRU-2756] ?
A) 1.0

Q) Also, XHWSHXWXPX (as printed: DO3A10CM-Damfe4-His-Trp-Ser-His-Darg-Trp-Bpa4-Pro-azaGly-NH2) [BRU-2757] please.
A) 1.0

Q) How about XHWSHXWXPX (as printed: DO3A10CM-Dnal2-His-Trp-Ser-His-Darg-Trp-Bpa4-Pro-azaGly-NH2) [BRU-2666] ?
A) 1.0
